# System: SK-MES-1
# Measurement Notes: relative viability (nuclei count vs DMSO), 5 days (fraction); higher = more cells survive
# Measurement Parameters: first compound 0.03162 µM
Assign relative viability to each entry below.
Numbers only.

{"columns": ["Compound", "relative viability"],
 "data": [
  ["NC(=O)Nc1cc(-c2cccc(F)c2)sc1C(=O)N[C@H]1CCCNC1 [AZD7762] + Nc1nc2[nH]cc(CCc3ccc(C(=O)N[C@@H](CCC(=O)O)C(=O)O)cc3)c2c(=O)[nH]1 [Pemetrexed] (partner 0.2 µM)", 0.914]
]}

Parameter requested: relative viability. Apply to each item below.
1. NC(=O)Nc1cc(-c2cccc(F)c2)sc1C(=O)N[C@H]1CCCNC1 [AZD7762] + COc1cccc2cc(-c3nc([C@H]4CC[C@H](C(=O)O)CC4)n4ncnc(N)c34)[nH]c12 [OSI-027] (partner 0.5 µM)
2. NC(=O)Nc1cc(-c2cccc(F)c2)sc1C(=O)N[C@H]1CCCNC1 [AZD7762] + Nc1ncn([C@H]2C[C@H](O)[C@@H](CO)O2)c(=O)n1 [Decitabine] (partner 2 µM)
3. NC(=O)Nc1cc(-c2cccc(F)c2)sc1C(=O)N[C@H]1CCCNC1 [AZD7762] + O=C(c1cc(Cc2n[nH]c(=O)c3ccccc23)ccc1F)N1CCN(C(=O)C2CC2)CC1 [Olaparib] (partner 8 µM)

[0.571, 0.394, 0.828]

---

For each record, write down the corresponding relative viability.
# Test system: SK-MES-1
# Measurement Notes: relative viability (nuclei count vs DMSO), 5 days (fraction); higher = more cells survive
# Measurement Parameters: first compound 0.01581 µM
Give bare numbers.

Reference set (3 entries):
{"columns": ["Compound", "relative viability"],
 "data": [
  ["CC1(C)CCC(c2ccc(Cl)cc2)=C(CN2CCN(c3ccc(C(=O)NS(=O)(=O)c4ccc(N[C@H](CCN5CCOCC5)CSc5ccccc5)c(S(=O)(=O)C(F)(F)F)c4)cc3)CC2)C1 [Navitoclax] + O=C(c1cc(Cc2n[nH]c(=O)c3ccccc23)ccc1F)N1CCN(C(=O)C2CC2)CC1 [Olaparib] (partner 8 µM)", 0.677],
  ["CC1(C)CCC(c2ccc(Cl)cc2)=C(CN2CCN(c3ccc(C(=O)NS(=O)(=O)c4ccc(N[C@H](CCN5CCOCC5)CSc5ccccc5)c(S(=O)(=O)C(F)(F)F)c4)cc3)CC2)C1 [Navitoclax] + CC(=O)c1c(C)c2cnc(Nc3ccc(N4CCNCC4)cn3)nc2n(C2CCCC2)c1=O [Palbociclib] (partner 0.5 µM)", 0.343],
  ["CC1(C)CCC(c2ccc(Cl)cc2)=C(CN2CCN(c3ccc(C(=O)NS(=O)(=O)c4ccc(N[C@H](CCN5CCOCC5)CSc5ccccc5)c(S(=O)(=O)C(F)(F)F)c4)cc3)CC2)C1 [Navitoclax] + N=C(N)NC(=N)NCCc1ccccc1 [Phenformin] (partner 250 µM)", 0.746]
]}

For each of the compounds below, note its relative viability.
1. CC1(C)CCC(c2ccc(Cl)cc2)=C(CN2CCN(c3ccc(C(=O)NS(=O)(=O)c4ccc(N[C@H](CCN5CCOCC5)CSc5ccccc5)c(S(=O)(=O)C(F)(F)F)c4)cc3)CC2)C1 [Navitoclax] + Nc1nc2[nH]cc(CCc3ccc(C(=O)N[C@@H](CCC(=O)O)C(=O)O)cc3)c2c(=O)[nH]1 [Pemetrexed] (partner 0.2 µM)
2. CC1(C)CCC(c2ccc(Cl)cc2)=C(CN2CCN(c3ccc(C(=O)NS(=O)(=O)c4ccc(N[C@H](CCN5CCOCC5)CSc5ccccc5)c(S(=O)(=O)C(F)(F)F)c4)cc3)CC2)C1 [Navitoclax] + CC(=O)Nc1cccc(-n2c(=O)n(C3CC3)c(=O)c3c(Nc4ccc(I)cc4F)n(C)c(=O)c(C)c32)c1 [Trametinib] (partner 0.02 µM)
3. CC1(C)CCC(c2ccc(Cl)cc2)=C(CN2CCN(c3ccc(C(=O)NS(=O)(=O)c4ccc(N[C@H](CCN5CCOCC5)CSc5ccccc5)c(S(=O)(=O)C(F)(F)F)c4)cc3)CC2)C1 [Navitoclax] + Cc1cc(Nc2cc(N3CCN(C)CC3)nc(Sc3ccc(NC(=O)C4CC4)cc3)n2)n[nH]1 [Tozasertib] (partner 0.1 µM)
4. CC1(C)CCC(c2ccc(Cl)cc2)=C(CN2CCN(c3ccc(C(=O)NS(=O)(=O)c4ccc(N[C@H](CCN5CCOCC5)CSc5ccccc5)c(S(=O)(=O)C(F)(F)F)c4)cc3)CC2)C1 [Navitoclax] + Cc1nc(Nc2ncc(C(=O)Nc3c(C)cccc3Cl)s2)cc(N2CCN(CCO)CC2)n1 [Dasatinib] (partner 0.075 µM)

1.05
0.681
0.976
0.466
